- target-under-test: human TRPV1 (Homo sapiens (Human), UniProt Q8NER1)
- Sequence (Q8NER1 whole entry): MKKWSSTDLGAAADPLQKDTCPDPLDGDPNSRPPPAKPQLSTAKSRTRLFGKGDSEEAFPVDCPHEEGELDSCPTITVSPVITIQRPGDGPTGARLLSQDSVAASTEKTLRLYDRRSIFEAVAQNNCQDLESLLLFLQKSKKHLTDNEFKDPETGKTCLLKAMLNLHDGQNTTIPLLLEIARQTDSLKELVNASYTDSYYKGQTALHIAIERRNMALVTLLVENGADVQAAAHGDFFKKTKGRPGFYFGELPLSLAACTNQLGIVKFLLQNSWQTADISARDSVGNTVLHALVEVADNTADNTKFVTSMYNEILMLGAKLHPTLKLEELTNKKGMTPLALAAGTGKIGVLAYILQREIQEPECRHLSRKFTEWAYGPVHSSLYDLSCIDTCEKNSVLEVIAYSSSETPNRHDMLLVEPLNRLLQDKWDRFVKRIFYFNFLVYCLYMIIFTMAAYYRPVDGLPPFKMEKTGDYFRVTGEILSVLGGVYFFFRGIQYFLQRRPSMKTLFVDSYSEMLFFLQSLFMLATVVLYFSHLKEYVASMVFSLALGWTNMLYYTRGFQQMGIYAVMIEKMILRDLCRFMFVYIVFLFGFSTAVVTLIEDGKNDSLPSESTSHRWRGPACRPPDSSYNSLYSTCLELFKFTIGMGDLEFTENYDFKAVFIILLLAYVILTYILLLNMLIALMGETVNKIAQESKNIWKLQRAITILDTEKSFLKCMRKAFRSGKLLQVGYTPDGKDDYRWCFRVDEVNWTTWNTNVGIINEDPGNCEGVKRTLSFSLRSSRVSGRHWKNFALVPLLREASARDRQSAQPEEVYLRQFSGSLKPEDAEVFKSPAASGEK
- procedure-text: Acid Activation Assay (pH 5.0, intracellular Ca2+, FLIPR)
- Type: cell-based
- test-settings: percentage of the maximal pH 5.0-induced response remaining; recombinant HEK293 hTRPV1 cells; maximum concentration tested 37.5 μM
Assign human TRPV1 H^+ (max % remain) to each entry below.
Report only the number, with the unit % understood.

**Q:** Suppose we examine the compound Cn1c(=O)ccc2c(NC(=O)N[C@H]3CC4(CCC4)Oc4ccc(F)cc43)cccc21 [Example 88] ; what human TRPV1 H^+ (max % remain) value has been reported?
**A:** 51

**Q:** Suppose we examine the compound CN1Cc2ccc(NC(=O)N[C@@H]3CCc4cc(F)ccc43)cc2NC1=O [Example 202] ; what human TRPV1 H^+ (max % remain) value has been reported?
**A:** 50

**Q:** Suppose we examine the compound Cn1c(=O)ccc2c(NC(=O)N[C@@H]3CCOc4c3cccc4C(F)(F)F)cccc21 [Example 97] ; what human TRPV1 H^+ (max % remain) value has been reported?
**A:** 26

**Q:** Suppose we examine the compound C[C@@]1(C(F)F)C[C@@H](NC(=O)Nc2ccc3c(c2)NC(=O)CC3)c2ccccc2O1 [Example 248] ; what human TRPV1 H^+ (max % remain) value has been reported?
**A:** 24

**Q:** Suppose we examine the compound CC1(C)C[C@@H](NC(=O)Nc2ccc3c(c2)NC(=O)CO3)c2ccc(Cl)c(F)c2O1 [Example 325] ; what human TRPV1 H^+ (max % remain) value has been reported?
**A:** 83

**Q:** Suppose we examine the compound O=C(Nc1ccc2c(c1)NC(=O)N(CCO)C2)N[C@@H]1CC(CF)(CF)Oc2c(F)cccc21 [Example 315] ; what human TRPV1 H^+ (max % remain) value has been reported?
**A:** 18

**Q:** Suppose we examine the compound CCC1(CC)C[C@@H](NC(=O)Nc2ccc3c(c2)NC(=O)N(CCO)C3)c2cc(F)ccc2O1 [Example 50] ; what human TRPV1 H^+ (max % remain) value has been reported?
**A:** 0

**Q:** Suppose we examine the compound CC1(C)C[C@@H](NC(=O)Nc2ccc3c(c2)NC(=O)CC3)c2cc(F)ccc2O1 [Example 232] ; what human TRPV1 H^+ (max % remain) value has been reported?
**A:** 32

**Q:** Suppose we examine the compound CCC1(CC)C[C@@H](NC(=O)Nc2ccc3c(c2)NC(=O)CO3)c2cccc(F)c2O1 [Example 101] ; what human TRPV1 H^+ (max % remain) value has been reported?
**A:** 105

**Q:** Suppose we examine the compound O=C(Nc1ccc2c(c1)NC(=O)C(N1CCOCC1)C2)N[C@@H]1CC(CF)(CF)Oc2cc(Cl)ccc21 (stereo partly drawn) [Example 300] ; what human TRPV1 H^+ (max % remain) value has been reported?
**A:** 75

**Q:** Suppose we examine the compound CN1C(=O)NCc2c(NC(=O)N[C@@H]3CCOc4c3cccc4C(C)(C)C)cccc21 [Example 142] ; what human TRPV1 H^+ (max % remain) value has been reported?
**A:** 18

**Q:** Suppose we examine the compound CCC1(CC)C[C@@H](NC(=O)Nc2cccc3c2ccc(=O)n3C)c2ccccc2O1 [Example 67] ; what human TRPV1 H^+ (max % remain) value has been reported?
**A:** 41

* * *

- target-under-test: human TRPV1 (Homo sapiens (Human))
- procedure-text: Capsaicin Activation Assay (intracellular Ca2+, FLIPR)
- test-settings: recombinant HEK293 cells expressing hTRPV1, 50 nM capsaicin
property: IC50 (nM)
Report only the number, with the unit nM understood.

**Q:** Suppose we examine the compound CN1C(=O)CCc2ccc(NC(=O)N[C@@H]3CCOc4ccc(F)cc43)cc21 ; what IC50 value has been reported?
**A:** 410

**Q:** Suppose we examine the compound CC1(C)C[C@@H](NC(=O)Nc2ccc3c(c2)NC(=O)C(N2CCCOCC2)C3)c2ccc(F)cc2O1 (stereo partly drawn) ; what IC50 value has been reported?
**A:** 610

**Q:** Suppose we examine the compound CCC1(CC)C[C@@H](NC(=O)Nc2ccc3c(c2)N(C)C(=O)CC3)c2cccc(F)c2O1 ; what IC50 value has been reported?
**A:** 4700

**Q:** Suppose we examine the compound CCC1(CC)C[C@@H](NC(=O)Nc2ccc3c(c2)NC(=O)CO3)c2ccc(OC(F)(F)F)cc2O1 ; what IC50 value has been reported?
**A:** 190

**Q:** Suppose we examine the compound Cn1c(=O)ccc2c(NC(=O)N[C@@H]3CC(C)(C)Oc4c(F)cccc43)cccc21 ; what IC50 value has been reported?
**A:** 19

**Q:** Suppose we examine the compound O=C(Nc1ccc2c(c1)NC(=O)N(CCO)C2)N[C@@H]1CC(CF)(CF)Oc2ccc(F)cc21 ; what IC50 value has been reported?
**A:** 6100

**Q:** Suppose we examine the compound Cn1c(=O)ccc2c(NC(=O)N[C@@H]3CC4(CCCC4)Oc4ccccc43)cccc21 ; what IC50 value has been reported?
**A:** 28

**Q:** Suppose we examine the compound CN1C(=O)NCc2c(NC(=O)N[C@@H]3C[C@](C)(C(F)(F)F)Oc4ccccc43)cccc21 ; what IC50 value has been reported?
**A:** 1

**Q:** Suppose we examine the compound CN1Cc2ccc(NC(=O)N[C@@H]3CC(CF)(CF)Oc4cc(Cl)ccc43)cc2NC1=O ; what IC50 value has been reported?
**A:** 130

**Q:** Suppose we examine the compound CCC1(CC)C[C@@H](NC(=O)Nc2ccc3c(c2)N(C)C(=O)CC3)c2ccc(Cl)cc2O1 ; what IC50 value has been reported?
**A:** 460

**Q:** Suppose we examine the compound CN1C(=O)CCc2ccc(NC(=O)N[C@@H]3CC4(CCCC4)Oc4ccccc43)cc21 ; what IC50 value has been reported?
**A:** 10000

**Q:** Suppose we examine the compound O=C1CCc2ccc(NC(=O)N[C@@H]3CC4(CCC4)Oc4ccc(F)cc43)cc2N1 ; what IC50 value has been reported?
**A:** 120

**Q:** Suppose we examine the compound CN1Cc2c(NC(=O)N[C@@H]3CC(CF)(CF)Oc4cc(Cl)ccc43)cccc2N(C)C1=O ; what IC50 value has been reported?
**A:** 5

**Q:** Suppose we examine the compound CCCC1(CCC)C[C@@H](NC(=O)Nc2cccc3c2CNC(=O)N3C)c2cccc(F)c2O1 ; what IC50 value has been reported?
**A:** 190

**Q:** Suppose we examine the compound O=C1COc2ccc(NC(=O)NCC3COc4ccc(F)cc4C3)cc2N1 (stereo not drawn) ; what IC50 value has been reported?
**A:** 2500

**Q:** Suppose we examine the compound CN1Cc2ccc(NC(=O)N[C@@H]3CC(C)(C)Oc4ccccc43)cc2NC1=O ; what IC50 value has been reported?
**A:** 270

**Q:** Suppose we examine the compound O=C(Nc1ccc2c(c1)NC(=O)N(CCO)C2)N[C@@H]1CC(CF)(CF)Oc2ccccc21 ; what IC50 value has been reported?
**A:** 57

**Q:** Suppose we examine the compound CN1Cc2ccc(NC(=O)N[C@@H]3CC(CF)(CF)Oc4cc(OC(F)(F)F)ccc43)cc2NC1=O ; what IC50 value has been reported?
**A:** 120

**Q:** Suppose we examine the compound CN1C(=O)NCc2c(NC(=O)N[C@@H]3CC(CF)(CF)Oc4ccc(F)cc43)cccc21 ; what IC50 value has been reported?
**A:** 470

**Q:** Suppose we examine the compound CC1(C)C[C@@H](NC(=O)Nc2ccc3c(c2)NC(=O)CC3)c2ccc(Cl)cc2O1 ; what IC50 value has been reported?
**A:** 1300

**Q:** Suppose we examine the compound CN1C(=O)CCc2ccc(NC(=O)N[C@@H]3C[C@](C)(C(F)(F)F)Oc4ccccc43)cc21 ; what IC50 value has been reported?
**A:** 32

**Q:** Suppose we examine the compound CC1(C)C[C@@H](NC(=O)Nc2ccc3c(c2)NC(=O)CC3)c2ccc(F)cc2O1 ; what IC50 value has been reported?
**A:** 1600

**Q:** Suppose we examine the compound Cn1c(=O)ccc2c(NC(=O)N[C@@H]3CC(C)(C)Oc4c3ccc(Cl)c4F)cccc21 ; what IC50 value has been reported?
**A:** 23

* * *

- target-under-test: human TRPV1 (Homo sapiens (Human))
- procedure-text: Acid Activation Assay (pH 5.0, intracellular Ca2+, FLIPR)
- Assay type: cell-based
- test-settings: percentage of the maximal pH 5.0-induced response remaining; recombinant HEK293 hTRPV1 cells; maximum concentration tested 37.5 μM
property: human TRPV1 H^+ (max % remain) (%)
Report only the number, with the unit % understood.

**Q:** # returns recorded human TRPV1 H^+ (max % remain) (system: human TRPV1 (Homo sapiens (Human))) for C[C@]1(CF)C[C@@H](NC(=O)Nc2ccc3c(c2)NC(=O)CC3)c2ccc(Cl)cc2O1
**A:** 54

**Q:** # returns recorded human TRPV1 H^+ (max % remain) (system: human TRPV1 (Homo sapiens (Human))) for CC1(C)C[C@@H](NC(=O)Nc2ccc3c(c2)NC(=O)CC3)c2ccc(C(F)(F)F)cc2O1
**A:** 37

**Q:** # returns recorded human TRPV1 H^+ (max % remain) (system: human TRPV1 (Homo sapiens (Human))) for O=C1CCc2ccc(NC(=O)N[C@@H]3CC4(CCC4)Oc4ccc(F)cc43)cc2N1
**A:** 57

**Q:** # returns recorded human TRPV1 H^+ (max % remain) (system: human TRPV1 (Homo sapiens (Human))) for CN1C(=O)CCc2ccc(NC(=O)N[C@@H]3CC(CF)(CF)Oc4c(F)cc(F)cc43)cc21
**A:** 66

**Q:** # returns recorded human TRPV1 H^+ (max % remain) (system: human TRPV1 (Homo sapiens (Human))) for Cn1c(=O)ccc2c(NC(=O)N[C@@H]3CC4(CCC4)Oc4ccc(F)cc43)cccc21
**A:** 32

**Q:** # returns recorded human TRPV1 H^+ (max % remain) (system: human TRPV1 (Homo sapiens (Human))) for CCC1(CC)C[C@@H](NC(=O)Nc2cccc3c2CNC(=O)N3C)c2cccc(F)c2O1
**A:** 27

**Q:** # returns recorded human TRPV1 H^+ (max % remain) (system: human TRPV1 (Homo sapiens (Human))) for CN1C(=O)NCc2c(NC(=O)N[C@H]3CCOc4cc(OC(F)(F)F)ccc43)cccc21
**A:** 96

**Q:** # returns recorded human TRPV1 H^+ (max % remain) (system: human TRPV1 (Homo sapiens (Human))) for Cn1c(=O)ccc2c(NC(=O)N[C@@H]3C[C@@](C)(CF)Oc4cc(Cl)ccc43)cccc21
**A:** 74

**Q:** # returns recorded human TRPV1 H^+ (max % remain) (system: human TRPV1 (Homo sapiens (Human))) for CN1C(=O)NCc2c(NC(=O)N[C@@H]3CC(C)(C)Oc4ccccc43)cccc21
**A:** 35

**Q:** # returns recorded human TRPV1 H^+ (max % remain) (system: human TRPV1 (Homo sapiens (Human))) for CCN1C(=O)NCc2c(NC(=O)N[C@@H]3CC(CF)(CF)Oc4cc(Cl)ccc43)cccc21
**A:** 0

**Q:** # returns recorded human TRPV1 H^+ (max % remain) (system: human TRPV1 (Homo sapiens (Human))) for CN1C(=O)NCc2c(NC(=O)N[C@@H]3C[C@](C)(CF)Oc4ccccc43)cccc21
**A:** 33

**Q:** # returns recorded human TRPV1 H^+ (max % remain) (system: human TRPV1 (Homo sapiens (Human))) for CN1C(=O)NCc2c(NC(=O)N[C@@H]3C[C@](C)(C(F)F)Oc4ccccc43)cccc21
**A:** 28

**Q:** # returns recorded human TRPV1 H^+ (max % remain) (system: human TRPV1 (Homo sapiens (Human))) for CCC1(CC)C[C@@H](NC(=O)Nc2cccc3c2CNC(=O)N3C)c2cc(F)ccc2O1
**A:** 20

**Q:** # returns recorded human TRPV1 H^+ (max % remain) (system: human TRPV1 (Homo sapiens (Human))) for CC1(C)C[C@@H](NC(=O)Nc2ccc3c(c2)NC(=O)CC3)c2ccc(F)c(Cl)c2O1
**A:** 37

**Q:** # returns recorded human TRPV1 H^+ (max % remain) (system: human TRPV1 (Homo sapiens (Human))) for C[C@@]1(C(F)(F)F)C[C@@H](NC(=O)Nc2ccc3c(c2)NC(=O)CC3)c2ccccc2O1
**A:** 28

**Q:** # returns recorded human TRPV1 H^+ (max % remain) (system: human TRPV1 (Homo sapiens (Human))) for CN1C(=O)NCc2c(NC(=O)N[C@@H]3CC(C)(C)Oc4ccc(F)cc43)cccc21
**A:** 36

**Q:** # returns recorded human TRPV1 H^+ (max % remain) (system: human TRPV1 (Homo sapiens (Human))) for CN1C(=O)NCc2c(NC(=O)N[C@@H]3CC(CF)(CF)Oc4cc(Cl)ccc43)cccc21
**A:** 21

**Q:** # returns recorded human TRPV1 H^+ (max % remain) (system: human TRPV1 (Homo sapiens (Human))) for O=C1COc2ccc(NC(=O)N[C@@H]3CCOc4cc(OC(F)(F)F)ccc43)cc2N1
**A:** 91

**Q:** # returns recorded human TRPV1 H^+ (max % remain) (system: human TRPV1 (Homo sapiens (Human))) for CN1C(=O)CCc2ccc(NC(=O)N[C@@H]3CC(C)(C)Oc4cc(Br)ccc43)cc21
**A:** 67

Measured values drawn from patent US8969325B2 for this set.
